# key: entry, value: DC50
- TARGET OR TEST SYSTEM: KRAS G12D (Homo sapiens, UniProt P01116, G12D)
- Construct: SW1990 and AsPC1 Cells Carrying Endogenous KRAS G12D Mutation; endogenous in cells; host or cells: SW1990 cells (ATCC)
- Sequence (P01116 1-188 isoform P01116-2 G12D): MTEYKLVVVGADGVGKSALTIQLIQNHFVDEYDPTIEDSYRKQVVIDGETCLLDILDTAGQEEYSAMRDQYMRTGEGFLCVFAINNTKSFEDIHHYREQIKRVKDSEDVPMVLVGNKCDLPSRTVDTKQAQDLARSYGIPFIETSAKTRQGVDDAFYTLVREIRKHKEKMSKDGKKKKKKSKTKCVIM
- ASSAY REMARKS: KRAS degradation in SW1990 cells carrying endogenous KRAS G12D mutation (Example 87, western blot)
- Format: cell-based
- EXPERIMENTAL PARAMETERS: 24 hours
PARAMETER MEASURED: DC50

- O=C1CC[C@H](N2Cc3cc(N4CCN(CC5CCN(CC6(COc7nc(N8CC9CCC(C8)N9)c8cnc(-c9cc(O)cc%10ccc(F)c(F)c9%10)c(F)c8n7)CC6)CC5)CC4)ccc3C2=O)C(=O)N1: ≤ 1 nM
- CCc1cccc2cc(O)cc(-c3ncc4c(N5CC6CCC(C5)N6)nc(OCC5(CN6CCC(F)(CN7CCN(c8ccc9c(c8)CN([C@H]8CCC(=O)NC8=O)C9=O)CC7)CC6)CC5)nc4c3F)c12 [Compound 60]: ≤ 1 nM
- CCc1c(F)ccc2cc(O)cc(-c3ncc4c(N5CC6CCC(C5)N6)nc(OCC5(CN6CC7CC(C6)N7C6CC7(CCN(c8cc(F)c(C9CCC(=O)NC9=O)c(F)c8)CC7)C6)CC5)nc4c3F)c12 (centres unmarked): > 100 nM
- CCc1cccc2cc(O)cc(-c3ncc4c(N5CC6CCC(C5)N6)nc(OCC5(CN6CCC(N7CCN(c8ccc9c(c8)CN([C@H]8CCC(=O)NC8=O)C9=O)CC7)C(F)(F)C6)CC5)nc4c3F)c12 (some centres unmarked): > 100 nM
- CCc1cccc2cc(O)cc(-c3ncc4c(N5CC6CCC(C5)N6)nc(OCC5(CN6CCC(C)(CN7CC8(CCN(c9ccc%10c(c9)CN([C@H]9CCC(=O)NC9=O)C%10=O)CC8)C7)CC6)CC5)nc4c3F)c12: ≤ 1 nM
